measured-on: HLA-A*02:01 (Homo sapiens, UniProt P04439, D140Y/D185E/D98H/E176V/E277Q/G131W/G231S/I119V/I121R/I166T/I218V/L300P/L318F/N151K/N90K/P208A/P217A/Q86G/Q94H/R138H/R169H/T345S)
experiment-summary: MHC binding assay: UV-ligand exchange with β2m ELISA (peptide exchange yield)
assay-context: MHC class I binding score; binding to HLA-A*02:01 ranged by peptide exchange yield (UV-ligand exchange, β2m ELISA)
recorded-endpoint: Peptide Exchange

Please review the entries below; each comes with its answer.
• 355 (FIWPMLIHI; listed as Homo sapiens) [compound 355] = ″+++″ (≥50 = +++)
• 279 (YMAPEVVEA; listed as Homo sapiens) [compound 279] = ″+++″ (≥50 = +++)
• 83 (GQGEVLVYV; listed as Homo sapiens) [compound 83] = ″+++″ (≥50 = +++)
• 314 (LMKDCEAEV; listed as Homo sapiens) [compound 314] = ″+++″ (≥50 = +++)
• 178 (VLFFNVQEV; listed as Homo sapiens) [compound 178] = ″+++″ (≥50 = +++)
• 250 (LLVQEPDGLMV; listed as Homo sapiens) [compound 250] = ″+++″ (≥50 = +++)

# input substance: 12 (ALGEDEITL; listed as Homo sapiens) [compound 12] ; wanted: its Peptide Exchange
″+++″ (≥50 = +++)

Another substance to check: 195 (YLGGFALSV; listed as Homo sapiens) [compound 195]
″++++″ (≥75% = ++++)

How about 154 (SLLAELHVLTV; listed as Homo sapiens) [compound 154] ?
″++++″ (≥75% = ++++)

----------
measured-on: HLA-A*02:01 (Homo sapiens, UniProt P04439, D140Y/D185E/D98H/E176V/E277Q/G131W/G231S/I119V/I121R/I166T/I218V/L300P/L318F/N151K/N90K/P208A/P217A/Q86G/Q94H/R138H/R169H/T345S)
experiment-summary: MHC binding assay: UV-ligand exchange with β2m ELISA (peptide exchange yield)
assay-context: MHC class I binding score; binding to HLA-A*02:01 ranged by peptide exchange yield (UV-ligand exchange, β2m ELISA)
recorded-endpoint: Peptide Exchange

A selection of reference data follows.
- 92 (ILEPLNPLL; listed as Homo sapiens) [compound 92]: ″+++″ (≥50 = +++)
- 19 (QVMEKLAAV; listed as Homo sapiens) [compound 19]: ″+++″ (≥50 = +++)
- 362 (ILTELGGFEV; listed as Homo sapiens) [compound 362]: ″+++″ (≥50 = +++)
- 232 (FMHQIIDQV; listed as Homo sapiens) [compound 232]: ″++++″ (≥75% = ++++)
- 264 (TILDYINVV; listed as Homo sapiens) [compound 264]: ″+++″ (≥50 = +++)
- 105 (KLMNDIADI; listed as Homo sapiens) [compound 105]: ″++″ (≥20% = ++)
- 219 (ALLNLLESA; listed as Homo sapiens) [compound 219]: ″+++″ (≥50 = +++)
- 13 (VVDGMPPGV; listed as Homo sapiens) [compound 13]: ″+++″ (≥50 = +++)

Dear colleague, I am looking for the recorded Peptide Exchange of the following substance: 286 (FLLEDLSQKL; listed as Homo sapiens) [compound 286]
″+++″ (≥50 = +++)

Same again, this time with 319 (QVIPQLQTV; listed as Homo sapiens) [compound 319]
″+++″ (≥50 = +++)

Another substance: 378 (YILGKFFAL; listed as Homo sapiens) [compound 378]
″+++″ (≥50 = +++)

----------
measured-on: HLA-A*02:01 (Homo sapiens, UniProt P04439, D140Y/D185E/D98H/E176V/E277Q/G131W/G231S/I119V/I121R/I166T/I218V/L300P/L318F/N151K/N90K/P208A/P217A/Q86G/Q94H/R138H/R169H/T345S)
experiment-summary: MHC binding assay: UV-ligand exchange with β2m ELISA (peptide exchange yield)
assay-context: MHC class I binding score; binding to HLA-A*02:01 ranged by peptide exchange yield (UV-ligand exchange, β2m ELISA)
recorded-endpoint: Peptide Exchange

Worked cases, answers included:
• 349 (ALATHILSL; listed as Homo sapiens) [compound 349] = ″+++″ (≥50 = +++)
• 338 (FLDMTNWNL; listed as Homo sapiens) [compound 338] = ″++++″ (≥75% = ++++)
• 55 (FMEPTLLML; listed as Homo sapiens) [compound 55] = ″+++″ (≥50 = +++)
• 277 (VMILKLPFL; listed as Homo sapiens) [compound 277] = ″++″ (≥20% = ++)

Would you mind telling me what Peptide Exchange value was observed for 217 (ALDEPPYLTV; listed as Homo sapiens) [compound 217] ?
″+++″ (≥50 = +++)

Try the substance 256 (QLLPVSNVVSV; listed as Homo sapiens) [compound 256]
″+++″ (≥50 = +++)

----------
measured-on: HLA-A*02:01 (Homo sapiens, UniProt P04439, D140Y/D185E/D98H/E176V/E277Q/G131W/G231S/I119V/I121R/I166T/I218V/L300P/L318F/N151K/N90K/P208A/P217A/Q86G/Q94H/R138H/R169H/T345S)
experiment-summary: MHC binding assay: UV-ligand exchange with β2m ELISA (peptide exchange yield)
assay-context: MHC class I binding score; binding to HLA-A*02:01 ranged by peptide exchange yield (UV-ligand exchange, β2m ELISA)
recorded-endpoint: Peptide Exchange

* 357 (FLIQEIKTL; listed as Homo sapiens) [compound 357] | ″+++″ (≥50 = +++)
* 34 (YLPYIFPNI; listed as Homo sapiens) [compound 34] | ″+++″ (≥50 = +++)
* 171 (TLVPPAALISI; listed as Homo sapiens) [compound 171] | ″+++″ (≥50 = +++)
* 38 (FIMEGGAMV; listed as Homo sapiens) [compound 38] | ″+++″ (≥50 = +++)
* 287 (FLWEEKFNSL; listed as Homo sapiens) [compound 287] | ″++++″ (≥75% = ++++)
* 302 (ILQDLTFVHL; listed as Homo sapiens) [compound 302] | ″+++″ (≥50 = +++)
* 191 (YIFDGSDGGV; listed as Homo sapiens) [compound 191] | ″+++″ (≥50 = +++)
* 380 (YLDRKLLTL; listed as Homo sapiens) [compound 380] | ″+++″ (≥50 = +++)
* 115 (LLFDKLYLL; listed as Homo sapiens) [compound 115] | ″+++″ (≥50 = +++)
* 113 (KVPAEEVLVAV; listed as Homo sapiens) [compound 113] | ″+++″ (≥50 = +++)

Need Peptide Exchange, item 190 (VVMGTVPRL; listed as Homo sapiens) [compound 190]
″+++″ (≥50 = +++)

Same for 58 (YIQQGIFSV; listed as Homo sapiens) [compound 58]
″+++″ (≥50 = +++)

What would you report for 340 (KLLEEICNL; listed as Homo sapiens) [compound 340] ?
″++++″ (≥75% = ++++)

Same thing, different substance: 293 (ALDIMIPMV; listed as Homo sapiens) [compound 293]
″+++″ (≥50 = +++)

Try 365 (LISPLLLPV; listed as Homo sapiens) [compound 365] next.
″+++″ (≥50 = +++)

----------
measured-on: HLA-A*02:01 (Homo sapiens, UniProt P04439, D140Y/D185E/D98H/E176V/E277Q/G131W/G231S/I119V/I121R/I166T/I218V/L300P/L318F/N151K/N90K/P208A/P217A/Q86G/Q94H/R138H/R169H/T345S)
experiment-summary: MHC binding assay: UV-ligand exchange with β2m ELISA (peptide exchange yield)
assay-context: MHC class I binding score; binding to HLA-A*02:01 ranged by peptide exchange yield (UV-ligand exchange, β2m ELISA)
Description: Candidate peptides for T cell based therapies according to the present invention were further tested for their MHC binding capacity (affinity). The individual peptide-MHC complexes were produced by UV-ligand exchange, where a UV-sensitive peptide is cleaved upon UV-irradiation, and exchanged with the peptide of interest as analyzed. Only peptide candidates that can effectively bind and stabilize the peptide-receptive MHC molecules prevent dissociation of the MHC complexes. […]
recorded-endpoint: Peptide Exchange

Past entries and their recorded results:
* 372 (SLFGPLPGPGPALV; listed as Homo sapiens) [compound 372] | ″+++″ (≥50 = +++)
* 336 (YMAVTTQEV; listed as Homo sapiens) [compound 336] | ″++++″ (≥75% = ++++)
* 348 (ALAKPPVVSV; listed as Homo sapiens) [compound 348] | ″+++″ (≥50 = +++)
* 359 (FMQDPMEVFV; listed as Homo sapiens) [compound 359] | ″+++″ (≥50 = +++)
* 108 (VIYTLIHYI; listed as Homo sapiens) [compound 108] | ″+++″ (≥50 = +++)

What does the record list as Peptide Exchange for 124 (LLLEETEKQAV; listed as Homo sapiens) [compound 124] ?
″+++″ (≥50 = +++)

Request: 71 (GLKHDIARV; listed as Homo sapiens) [compound 71]
″+++″ (≥50 = +++)

Now the substance 245 (KIMDYSLLLGV; listed as Homo sapiens) [compound 245]
″++++″ (≥75% = ++++)
